Where do the numbers come from? From ChEMBL document CHEMBL1926598.

Assay: Induction of nitric oxide release at 0.1 mM after 6 hrs in phosphate buffer at pH 7.4 by Griess assay
Format: physicochemical
Conditions: pH 7.4, 6 h, 100 µM
Measured parameter: Activity (mol/mol)

O=C(CO[N+](=O)[O-])Nc1ccc(C(=O)/C=C/c2ccc3c(c2)OCO3)cc1 0.67

a. O=C(CO[N+](=O)[O-])Nc1ccc(C(=O)/C=C/c2ccco2)cc1
b. C/C(=N/O)c1ccc(OCC(=O)Nc2ccc(C(=O)/C=C/c3ccc4c(c3)OCO4)cc2)cc1
In: Which shows the larger Activity value: a or b ? Let me know the label of the one you choose.
Out: a
(a: 0.59 mol/mol, b: 0.24 mol/mol)

###

Test: Induction of nitric oxide release at 0.1 mM after 1 hr in phosphate buffer at pH 7.4 by Griess assay
Assay type: physicochemical
Conditions: pH 7.4, 1 h, 100 µM
Measured parameter: Activity (mol/mol)

Compound	Activity [mol/mol]
O=C(COCc1c(-c2ccccc2)no[n+]1[O-])Nc1ccc(C(=O)/C=C/c2ccco2)cc1	0.16
O=C(CO[N+](=O)[O-])Nc1ccc(C(=O)/C=C/c2ccco2)cc1	0.15
C/C(=N/O)c1ccc(OCC(=O)Nc2ccc(C(=O)/C=C/c3ccco3)cc2)cc1	0.1
CC(O[N+](=O)[O-])C(=O)Nc1ccc(C(=O)/C=C/c2ccc(Cl)cc2)cc1 (centres undefined)	0.13

###

Listed below: inhibition in vivo at 100 mg/kg values for each entry.
Test system: Rattus norvegicus
Assay: Antiinflammatory activity in albino rat assessed as inhibition of carrageenan-induced paw edema at 100 mg/kg, po administered 30 mins prior to challenge measured after 3 hrs relative to untreated control
Type: functional
Report the figure in % without appending any unit label.

Example compounds with recorded inhibition in vivo at 100 mg/kg:
Compound	Test result
Nc1ccc(C(=O)/C=C/c2ccc(Cl)cc2)cc1	60
COc1ccc(/C=C/C(=O)c2ccc(NC(=O)COc3ccc(/C(C)=N\O)cc3)cc2)cc1	46
COc1ccc(/C=C/C(=O)c2ccc(NC(=O)CO[N+](=O)[O-])cc2)cc1	53
O=C(CO[N+](=O)[O-])Nc1ccc(C(=O)/C=C/c2ccco2)cc1	48
O=C(CBr)Nc1ccc(C(=O)/C=C/c2ccc(Cl)cc2)cc1	59

In: Return value of inhibition in vivo at 100 mg/kg for input O=C(CBr)Nc1ccc(C(=O)/C=C/c2ccco2)cc1 , no commentary.
Out: 41

In: Entry C/C(=N/O)c1ccc(OCC(=O)Nc2ccc(C(=O)/C=C/c3ccco3)cc2)cc1 needs its inhibition in vivo at 100 mg/kg filled in; supply it.
Out: 49

In: Return value of inhibition in vivo at 100 mg/kg for input O=C(COCc1c(-c2ccccc2)no[n+]1[O-])Nc1ccc(C(=O)/C=C/c2ccc3c(c2)OCO3)cc1 , no commentary.
Out: 62

In: Respond only with inhibition in vivo at 100 mg/kg recorded for CC(O[N+](=O)[O-])C(=O)Nc1ccc(C(=O)/C=C/c2ccc(Cl)cc2)cc1 (stereo not given)
Out: 62

In: Input CC(=O)c1ccc(OCC(=O)Nc2ccc(C(=O)/C=C/c3ccc(Cl)cc3)cc2)cc1 , output reported inhibition in vivo at 100 mg/kg.
Out: 61

In: Specify inhibition in vivo at 100 mg/kg for O=C(COCc1c(-c2ccccc2)no[n+]1[O-])Nc1ccc(C(=O)/C=C/c2ccc(Cl)cc2)cc1 and stop.
Out: 66

###

Test system: Rattus norvegicus
Assay: Antiinflammatory activity in albino rat assessed as inhibition of carrageenan-induced paw edema at 100 mg/kg, po administered 30 mins prior to challenge measured after 3 hrs relative to untreated control
Assay type: functional
# inhibition in vivo at 100 mg/kg per record follows
Numbers only; they are read as %.

Molecule	Unit text	inhibition in vivo at 100 mg/kg
C/C(=N/O)c1ccc(OCC(=O)Nc2ccc(C(=O)/C=C/c3ccc(Cl)cc3)cc2)cc1	%	66
O=C(CO[N+](=O)[O-])Nc1ccc(C(=O)/C=C/c2ccc(Cl)cc2)cc1	%	69
O=C(CBr)Nc1ccc(C(=O)/C=C/c2ccc3c(c2)OCO3)cc1	%	53
COc1ccc(/C=C/C(=O)c2ccc(NC(=O)COCc3c(-c4ccccc4)no[n+]3[O-])cc2)cc1	%	56
CC(Br)C(=O)Nc1ccc(C(=O)/C=C/c2ccc3c(c2)OCO3)cc1 (centres undefined)	%	56

In: Provide inhibition in vivo at 100 mg/kg, tested on Rattus norvegicus, for COc1ccc2c(c1)c(CC(=O)O)c(C)n2C(=O)c1ccc(Cl)cc1 [INDOMETHACIN] .
Out: 78

###

Test system: Rattus norvegicus
Test: Antiinflammatory activity in albino rat assessed as inhibition of carrageenan-induced paw edema at 100 mg/kg, po administered 30 mins prior to challenge measured after 3 hrs relative to untreated control
Format: functional
inhibition in vivo at 100 mg/kg by entry:
Give the quantity in %, number only.

Below, each entry is followed by its recorded inhibition in vivo at 100 mg/kg result.
Compound	Test result
COc1ccc(/C=C/C(=O)c2ccc(NC(=O)C(C)Br)cc2)cc1 (stereo not drawn)	40
COc1ccc(/C=C/C(=O)c2ccc(NC(=O)CBr)cc2)cc1	46

In: // fetch inhibition in vivo at 100 mg/kg given entry CC(O[N+](=O)[O-])C(=O)Nc1ccc(C(=O)/C=C/c2ccc3c(c2)OCO3)cc1 (stereo not drawn)
Out: 59

In: Give the value of inhibition in vivo at 100 mg/kg reported for the following: CC(Br)C(=O)Nc1ccc(C(=O)/C=C/c2ccco2)cc1 (stereo not drawn)
Out: 42

###

// inhibition in vivo at 100 mg/kg lookup, one value per entry
Tested on: Rattus norvegicus
Experiment: Antiinflammatory activity in albino rat assessed as inhibition of carrageenan-induced paw edema at 100 mg/kg, po administered 30 mins prior to challenge measured after 3 hrs relative to untreated control
Assay type: functional
Enter your answer as a number in %; do not include the unit.

Look over these answered cases.
Compound	Assay system	Measured parameter	Test result
CC(Br)C(=O)Nc1ccc(C(=O)/C=C/c2ccc(Cl)cc2)cc1 (centres undefined)	Rattus norvegicus	inhibition in vivo at 100 mg/kg	59
O=C(CO[N+](=O)[O-])Nc1ccc(C(=O)/C=C/c2ccc3c(c2)OCO3)cc1	Rattus norvegicus	inhibition in vivo at 100 mg/kg	61
Nc1ccc(C(=O)/C=C/c2ccc3c(c2)OCO3)cc1	Rattus norvegicus	inhibition in vivo at 100 mg/kg	55

In: Identify inhibition in vivo at 100 mg/kg associated with the compound COc1ccc(/C=C/C(=O)c2ccc(N)cc2)cc1
Out: 51
